# assay procedure: self-splicing fitness, log relative to wild type (ln ratio); higher = more splicing; Tetrahymena group I intron in knt gene, E. coli kanamycin selection, DiMSum; sequences stand for … in CUCUCU…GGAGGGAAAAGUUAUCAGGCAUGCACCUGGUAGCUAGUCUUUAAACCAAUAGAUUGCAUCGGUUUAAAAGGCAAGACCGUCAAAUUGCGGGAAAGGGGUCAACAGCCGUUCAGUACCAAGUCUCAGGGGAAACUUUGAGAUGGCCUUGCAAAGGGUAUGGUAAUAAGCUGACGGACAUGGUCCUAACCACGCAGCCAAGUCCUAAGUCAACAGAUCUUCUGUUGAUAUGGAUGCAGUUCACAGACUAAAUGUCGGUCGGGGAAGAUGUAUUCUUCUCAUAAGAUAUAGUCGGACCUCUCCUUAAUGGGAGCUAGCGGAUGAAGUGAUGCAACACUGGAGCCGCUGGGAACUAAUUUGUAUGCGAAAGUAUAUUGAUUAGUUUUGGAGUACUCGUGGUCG;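 further: selection with 25 µg/mL kanamycin versus none on LB agar overnight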
# condition parameters: 30 °C
Label t when self-splicing fitness (ln) >= -2; otherwise f.

Is self-splicing fitness (ln) for `UCAAAGCAAUAUUACGUGGC` at or above -2?
f

Please indicate if the recorded self-splicing fitness (ln) for `AGGCAGCAAUAUUACGGAUA` meets or exceeds -2.
t

Is self-splicing fitness (ln) for `CAAUAGCAAUAUUACGAUAA` at or above -2?
f

Check this sequence for self-splicing fitness (ln) at or above -2: `GCCUAGCAAUAUUACGGCGA`
f

Could you verify whether the entry `CAUUAGCAAUAUUACGACUG` shows self-splicing fitness (ln) of no less than -2?
t

Identify whether the reported self-splicing fitness (ln) of the following sequence is -2 or greater: `GAUGAGCAAUAUUACGAGUG`
f

Decide: is the reported value of self-splicing fitness (ln) for `AUAGAGCAAUAUUACGGUGU` equal to or greater than -2?
t

Does the sequence `UGGUAGCAAUAUUACGUAGG` have recorded self-splicing fitness (ln) that is -2 or more?
t

Given `AUCAAGCAAUAUUACGCAUG` , state whether its self-splicing fitness (ln) is at least -2.
f

Hi, just wondering whether `AAGUAGCAAUAUUACGCGCG` shows self-splicing fitness (ln) of -2 or higher.
t

Could you tell me if the measured self-splicing fitness (ln) of `CCAAAGCAAUAUUACGGUUU` reaches -2 or more?
f

Quick check, self-splicing fitness (ln) >= -2? `GGCAAGCAAUAUUACGGUGG`
f

Test whether the sequence `UUGCAGCAAUAUUACGAGUA` records self-splicing fitness (ln) of -2 or higher.
t

Is it the case that `AACGAGCAAUAUUACGAGAG` has self-splicing fitness (ln) reaching or exceeding -2?
f

Is it the case that `UCCAAGCAAUAUUACGCCGU` has self-splicing fitness (ln) reaching or exceeding -2?
t

Determine whether this sequence has self-splicing fitness (ln) no lower than -2: `GAUCAGCAAUAUUACGCGAG`
t

----------
Consider the following sequences; for each one, report its self-splicing fitness (ln).
# assay procedure: self-splicing fitness, log relative to wild type (ln ratio); higher = more splicing; Tetrahymena group I intron in knt gene, E. coli kanamycin selection, DiMSum; sequences stand for … in CUCUCU…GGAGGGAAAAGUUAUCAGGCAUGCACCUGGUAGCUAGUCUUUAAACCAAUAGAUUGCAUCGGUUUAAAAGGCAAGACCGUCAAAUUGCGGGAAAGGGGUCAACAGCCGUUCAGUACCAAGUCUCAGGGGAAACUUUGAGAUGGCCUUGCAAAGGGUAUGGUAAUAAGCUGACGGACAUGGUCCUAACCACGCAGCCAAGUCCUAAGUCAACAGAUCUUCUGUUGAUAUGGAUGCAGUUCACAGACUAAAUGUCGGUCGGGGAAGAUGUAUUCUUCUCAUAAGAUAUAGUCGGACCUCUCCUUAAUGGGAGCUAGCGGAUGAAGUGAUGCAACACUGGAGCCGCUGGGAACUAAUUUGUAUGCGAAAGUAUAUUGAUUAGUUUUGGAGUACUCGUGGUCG
# condition parameters: 37 °C

Return reported self-splicing fitness (ln). Input sequence: `CACUAGCAAUAUUACGAGUG`
-2.73

Supply self-splicing fitness (ln) value. Item: `AUGAAGCAAUAUUACGCUUC`
-2.99

Answer with the recorded self-splicing fitness (ln) of `ACAGAGCAAUAUUACGGAUG` only.
-3.37

For the sequence `UCCUAGCAAUAUUACGUUUA` , report self-splicing fitness (ln).
-2.54

Determine from records and report self-splicing fitness (ln) for `UGAUAGCAAUAUUACGACCA`
-0.327

For the sequence `AACAAGCAAUAUUACGGCCA` , give its reported self-splicing fitness (ln).
-0.412

Quick one: give measured self-splicing fitness (ln) for `UUCUAGCAAUAUUACGGCAC`
-0.626

Dear colleague, please send me the reported self-splicing fitness (ln) for `CACGAGCAAUAUUACGGUCC` when you can.
-3.16

----------
# assay procedure: self-splicing fitness, log relative to wild type (ln ratio); higher = more splicing; Tetrahymena group I intron in knt gene, E. coli kanamycin selection, DiMSum; sequences stand for … in CUCUCU…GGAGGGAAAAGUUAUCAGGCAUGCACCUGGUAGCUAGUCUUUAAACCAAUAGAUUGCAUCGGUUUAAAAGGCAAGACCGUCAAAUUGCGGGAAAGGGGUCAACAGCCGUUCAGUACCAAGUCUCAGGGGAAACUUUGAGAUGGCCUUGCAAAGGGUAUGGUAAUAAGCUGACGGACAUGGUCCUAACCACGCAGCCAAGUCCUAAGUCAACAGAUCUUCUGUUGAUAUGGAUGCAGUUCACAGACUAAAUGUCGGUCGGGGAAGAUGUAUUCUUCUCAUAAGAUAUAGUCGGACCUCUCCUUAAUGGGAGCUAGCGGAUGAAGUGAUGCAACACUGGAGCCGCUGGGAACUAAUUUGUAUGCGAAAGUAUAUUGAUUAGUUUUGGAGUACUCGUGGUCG
# condition parameters: 30 °C
quantity: self-splicing fitness (ln)
Note: the reply should be a number with no unit written.

Give the reported value of self-splicing fitness (ln) for this record: `UUUUAGCAAUAUUACGUCUA`
-0.819

Quote self-splicing fitness (ln) reported for `UCUGAGCAAUAUUACGAUGG` please.
-1.42

Identify the reported self-splicing fitness (ln) for the following entry. `AUUCAGCAAUAUUACGUCAG`
-2.51

Provide measured self-splicing fitness (ln) value, entry: `CGUAAGCAAUAUUACGGAAU`
-3.8

Return reported self-splicing fitness (ln). Input sequence: `UGUAAGCAAUAUUACGGGCU`
-1.73

Give reported self-splicing fitness (ln) value for `CAUGAGCAAUAUUACGGGAU`
-3.49

Supply reported self-splicing fitness (ln) belonging to this sequence: `GAAAAGCAAUAUUACGCAAC`
-2.92

Give self-splicing fitness (ln) for `CCUUAGCAAUAUUACGAUCG`
-0.392

Consider the sequence `AAAUAGCAAUAUUACGCGCA` and give its recorded self-splicing fitness (ln).
-0.264

Kindly indicate its recorded self-splicing fitness (ln). Item: `UUACAGCAAUAUUACGUUUA`
-1.3

For the sequence `ACAGAGCAAUAUUACGUAUU` , give its reported self-splicing fitness (ln).
-3.66

State its self-splicing fitness (ln) for this sequence: `UUUGAGCAAUAUUACGUAAC`
-2.01

Query self-splicing fitness (ln) for `UAACAGCAAUAUUACGCCCA`
-0.674

Please look at this sequence and report its self-splicing fitness (ln): `ACCAAGCAAUAUUACGUACG`
-2.52

Look up and report measured self-splicing fitness (ln) for this entry: `AUGGAGCAAUAUUACGCCCU`
-2.84

Given `CAGGAGCAAUAUUACGGAGU` , respond with its self-splicing fitness (ln).
-2.74

----------
# assay procedure: self-splicing fitness, log relative to wild type (ln ratio); higher = more splicing; Tetrahymena group I intron in knt gene, E. coli kanamycin selection, DiMSum; sequences stand for … in CUCUCU…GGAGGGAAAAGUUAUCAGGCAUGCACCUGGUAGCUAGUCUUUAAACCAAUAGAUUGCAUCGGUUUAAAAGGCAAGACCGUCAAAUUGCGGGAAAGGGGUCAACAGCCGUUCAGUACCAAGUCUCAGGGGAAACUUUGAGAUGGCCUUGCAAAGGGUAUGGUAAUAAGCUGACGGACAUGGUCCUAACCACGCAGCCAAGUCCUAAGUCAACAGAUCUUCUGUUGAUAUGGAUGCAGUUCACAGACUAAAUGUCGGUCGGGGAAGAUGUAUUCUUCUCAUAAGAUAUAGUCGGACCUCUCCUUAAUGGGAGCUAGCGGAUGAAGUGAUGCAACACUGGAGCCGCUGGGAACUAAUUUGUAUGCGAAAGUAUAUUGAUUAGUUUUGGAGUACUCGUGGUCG
# condition parameters: 30 °C
Please mark Y if the recorded self-splicing fitness (ln) is equal to or greater than -3, and N if it falls below.

Item `UGCAAGCAAUAUUACGAUAU` with self-splicing fitness (ln) of -3 or above?
N

# bool: self-splicing fitness (ln) of `CGCCAGCAAUAUUACGCGUA` >= -3
Y

Is the recorded value of self-splicing fitness (ln) equal to or greater than -3 for this sequence? `CCGAAGCAAUAUUACGGAGC`
Y

API: above_or_equal(metric=self-splicing fitness (ln), cutoff=-3) for item `ACUAAGCAAUAUUACGCUUC`
Y

Decide: is the reported value of self-splicing fitness (ln) for `CGUCAGCAAUAUUACGUAGA` equal to or greater than -3?
Y

In plain terms: is recorded self-splicing fitness (ln) at least -3 for `GUCGAGCAAUAUUACGUUCG` ?
N

Answer whether self-splicing fitness (ln) of `CAGGAGCAAUAUUACGGCGC` is greater than or equal to -3.
N

hey, is self-splicing fitness (ln) for this one >= -3? `AAUAAGCAAUAUUACGAGGG`
N

Quick check, self-splicing fitness (ln) >= -3? `AAUCAGCAAUAUUACGAUAG`
Y

Say whether `AGAGAGCAAUAUUACGUAUU` shows self-splicing fitness (ln) of -3 or more.
N

Exam item: decide whether the reported self-splicing fitness (ln) for `CUCGAGCAAUAUUACGCGUU` is at least -3.
N

Hi, just wondering whether `ACCAAGCAAUAUUACGGCCA` shows self-splicing fitness (ln) of -3 or higher.
Y

Would you say `UGCCAGCAAUAUUACGCAUC` shows self-splicing fitness (ln) at minimum -3?
N

Is it the case that `ACUUAGCAAUAUUACGGCCA` has self-splicing fitness (ln) reaching or exceeding -3?
Y

Decide: self-splicing fitness (ln) of `AGGUAGCAAUAUUACGGUCA` >= -3?
Y

Check the entry `GACAAGCAAUAUUACGCGGG` : does self-splicing fitness (ln) equal or exceed -3?
Y

Can `GAAGAGCAAUAUUACGAUCU` be said to have self-splicing fitness (ln) at or above -3?
Y

Determine whether this sequence has self-splicing fitness (ln) no lower than -3: `CGGUAGCAAUAUUACGUGGG`
N

Record `AGUGAGCAAUAUUACGAGUU` ; criterion: self-splicing fitness (ln) no lower than -3. Met?
Y

Determine whether measured self-splicing fitness (ln) meets or exceeds -3 for `GCAGAGCAAUAUUACGUGUU`
N

Could you tell me if the measured self-splicing fitness (ln) of `CAUUAGCAAUAUUACGGUUA` reaches -3 or more?
Y

I'd appreciate it if you could say whether `CGAGAGCAAUAUUACGUUAC` has self-splicing fitness (ln) at least equal to -3.
N

Can `ACAAAGCAAUAUUACGUGAC` be said to have self-splicing fitness (ln) at or above -3?
N

Identify whether the reported self-splicing fitness (ln) of the following sequence is -3 or greater: `UUCUAGCAAUAUUACGAGUU`
Y

Quick check: does `ACAAAGCAAUAUUACGUGCA` have self-splicing fitness (ln) greater than or equal to -3?
Y

Please tell me: is the sequence `UAUCAGCAAUAUUACGUUUU` at or over -3 in terms of self-splicing fitness (ln)?
Y

Is self-splicing fitness (ln) for `ACCAAGCAAUAUUACGUUGG` at or above -3?
N

Quick check, self-splicing fitness (ln) >= -3? `AUCCAGCAAUAUUACGAUCU`
Y

Is the recorded value of self-splicing fitness (ln) equal to or greater than -3 for this sequence? `AUGGAGCAAUAUUACGUGGA`
N

Kindly determine if self-splicing fitness (ln) recorded for `GUAGAGCAAUAUUACGUUGC` is above or exactly -3.
N

Item `UACGAGCAAUAUUACGGCGU` with self-splicing fitness (ln) of -3 or above?
Y

Decide: self-splicing fitness (ln) of `GUCGAGCAAUAUUACGUAGC` >= -3?
Y

I'd appreciate it if you could say whether `AGUUAGCAAUAUUACGGCCC` has self-splicing fitness (ln) at least equal to -3.
Y
